# DC50 values compiled below
EXPERIMENTAL SYSTEM: SHP2 protein (Homo sapiens)
ASSAY NAME: Degradation activity on SHP2 protein in MV-411 cells (Western blot, DC50)
Type: cell-based
Design: endogenous in cells
CONDITION PARAMETERS: MV411 cells, 24 hours, read-out: Degradation activity for differenct cell lines MV411 (DC50)

Below, 5 molecules whose answers are already recorded.
Cc1ncsc1-c1ccc([C@H](C)NC(=O)[C@@H]2C[C@@H](O)CN2C(=O)[C@@H](NC(=O)c2cnc(N3CCN(CCCCCCCCC(=O)Nc4cccc(Sc5cnc(N6CCC(C)(C(N)=O)CC6)cn5)c4)CC3)nc2)C(C)(C)C)cc1
> 1000 nM
CC1(N)CCN(c2cnc(Sc3cccc(NC(=O)CCCCCCN4CC5(CCN(c6ccc(C#Cc7ccc8c(c7)CN(C7CCC(=O)NC7=O)C8=O)nn6)C5)C4)c3)cn2)CC1 (stereo not shown)
< 100 nM
CC1(C(N)=O)CCN(c2cnc(Sc3cccc(NC(=O)CCCCCCCCN4CCN(c5ncc(C(=O)NCc6cccc7c6CN(C6CCC(=O)NC6=O)C7=O)cn5)CC4)c3)cn2)CC1 (stereo not shown)
> 1000 nM
NCC1(O)C2CCC1CN(c1cnc(Sc3cccc(NC(=O)CCCCCCN4CC5(CCN(c6ccc(C(=O)NCc7ccc8c(c7)CN(C7CCC(=O)NC7=O)C8=O)nn6)C5)C4)c3)cn1)C2 (stereo not shown)
> 1000 nM
Cc1ncsc1-c1ccc([C@H](C)NC(=O)[C@@H]2C[C@@H](O)CN2C(=O)[C@@H](NC(=O)c2cnc(N3CCN(CCCCCCCCC(=O)Nc4cccc(Sc5cnc(N6CCC(C)(N)CC6)cn5)c4)CC3)nc2)C(C)(C)C)cc1
< 100 nM

Recorded DC50 for CC1(N)CCN(c2cnc(Sc3cccc(NC(=O)CC(=O)Nc4ccc5c(c4)C(=O)N(C4CCC(=O)NC4=O)C5)c3)cn2)CC1 (stereo not shown) , please?
> 1000 nM

Now try CC1(N)CCN(c2cnc(Sc3cccc(NC(=O)CCCCCCCN4CC5CN(Cc6ccc(COc7cccc8c7CN(C7CCC(=O)NC7=O)C8=O)cc6)CC5C4)c3)cn2)CC1 (stereo not shown) .
< 100 nM

Field entry: `Cc1ncsc1-c1ccc([C@H](C)NC(=O)[C@@H]2C[C@@H](O)CN2C(=O)[C@@H](NC(=O)c2cnc(N3CCC4(CN(CCCCCCCC(=O)Nc5cccc(Sc6cnc(N7CCC(C)(N)CC7)cn6)c5)C4)C3)nc2)C(C)(C)C)cc1`
< 100 nM

Next record, please: CC1(N)CCN(c2cnc(Sc3cccc(NC(=O)CC(=O)Nc4cccc5c4CN(C4CCC(=O)NC4=O)C5=O)c3)cn2)CC1 (stereo not shown)
> 1000 nM

Please give the result for CN(Cc1ccc2c(c1)CN(C1CCC(=O)NC1=O)C2=O)C(=O)c1ccc(N2CC3CC(OCCCCCCC(=O)Nc4cccc(Sc5cnc(N6CCC(C)(N)CC6)cn5)c4)CC3C2)nn1 (stereo not shown) too.
< 100 nM

====

EXPERIMENTAL SYSTEM: SHP2 protein (Homo sapiens)
ASSAY NAME: Degradation activity on SHP2 protein in MIA Paca-2 cells (Western blot, DC50)
Assay type: cell-based
Set-up: endogenous in cells; host or cells: MIA Paca-2 cells
CONDITION PARAMETERS: read-out: Degradation activity for differenct cell lines MIA Paca-2 (DC50)
EXPERIMENTAL READOUT: DC50

CC1(N)CCN(c2cnc(Sc3cccc(NC(=O)c4ccc(N5CCC(N6CCN(c7nnc(C(=O)NCc8ccc9c(c8)CN(C8CCC(=O)NC8=O)C9=O)cc7Cl)CC6)CC5)c(F)c4)c3)cn2)CC1 (stereo not shown) [Compound 493]
< 100 nM
CC1(N)CCN(c2cnc(Sc3cccc(NC(=O)c4cc(N5CCC(N6CC=C(c7ccc(C(=O)NCc8ccc9c(c8)CN(C8CCC(=O)NC8=O)C9=O)nn7)CC6)CC5)cs4)c3)cn2)CC1 (stereo not shown) [Compound 404]
> 1000 nM
Cc1cc(N2CCC(N3CC=C(c4cnc(C(=O)NCc5ccc6c(c5)CN(C5CCC(=O)NC5=O)C6=O)cc4C)CC3)CC2)ccc1C(=O)Nc1cccc(Sc2cnc(N3CCC(C)(N)CC3)cn2)c1 (stereo not shown) [Compound 457]
< 100 nM
CC1(N)CCN(c2cnc(Sc3cccc(NC(=O)CCCCN4CCC(N5CCN(c6ccc(C(=O)NCc7ccc8c(c7)CN(C7CCC(=O)NC7=O)C8=O)nn6)CC5)C4)c3)cn2)CC1 (stereo not shown) [Compound 266]
> 1000 nM
CC1(N)CCN(c2cnc(Sc3cccc(NC(=O)CCCCCCCCN4C[C@H]5C[C@@H]4CN5c4ccc(C(=O)NCc5ccc6c(c5)CN(C5CCC(=O)NC5=O)C6=O)nn4)c3)cn2)CC1 (stereo partly shown) [Compound 238]
< 100 nM
CC1(N)CCN(c2cnc(Sc3cccc(NC(=O)c4ccc(N5CCC(N6CC=C(c7ccc(C(=O)Nc8ccc9c(c8)CN(C8CCC(=O)NC8=O)C9=O)nc7)CC6)CC5)nc4)c3)cn2)CC1 (stereo not shown) [Compound 325]
< 100 nM
CC1(N)CCN(c2cnc(Sc3cccc(NC(=O)c4ccc(N5CCC(N6CCN(c7ccc(C(=O)NCc8ccc9c(c8)CN(C8CCC(=O)NC8=O)C9=O)cc7F)CC6)CC5)cc4)c3)cn2)CC1 (stereo not shown) [Compound 513]
< 100 nM
C[C@@H]1OCC2(CCN(c3cnc(Sc4cccc(NC(=O)c5ccc(N6CCC(N7CC=C(c8ccc(C(=O)NCc9ccc%10c(c9)CN(C9CCC(=O)NC9=O)C%10=O)c(F)n8)CC7)CC6)c(F)c5)c4)cn3)CC2)[C@@H]1N (stereo partly shown) [Compound 472]
100 to 1000 nM

# get_value(readout='DC50', item= CC1(N)CCN(c2cnc(Sc3cccc(NC(=O)C4CCC(N5CCC(N6CC=C(c7ccc(C(=O)NCc8ccc9c(c8)CN(C8CCC(=O)NC8=O)C9=O)nn7)CC6)CC5)CC4)c3)cn2)CC1 (stereo not shown) [Compound 339] )
< 100 nM

Subsequent entry: CC1(N)CCN(c2cnc(Sc3cccc(NC(=O)CCCCCCN4CC5(CCN(C6CC(C(=O)NCc7ccc8c(c7)CN(C7CCC(=O)NC7=O)C8=O)C6)C5)C4)c3)cn2)CC1 (stereo not shown) [Compound 160]
> 1000 nM

====

EXPERIMENTAL SYSTEM: SHP2 protein (Homo sapiens, UniProt Q06124)
ASSAY NAME: Degradation activity on SHP2 protein in MV-411 cells (Western blot, DC50)
Assay type: cell-based
Set-up: endogenous in cells
CONDITION PARAMETERS: MV411 cells, 24 hours, read-out: Degradation activity for differenct cell lines MV411 (DC50)
EXPERIMENTAL READOUT: DC50

Cc1ncsc1-c1ccc([C@H](C)NC(=O)[C@@H]2C[C@@H](O)CN2C(=O)[C@@H](NC(=O)c2cnc(N3CCC4(CN(CCC(=O)Nc5cccc(Sc6cnc(N7CCC(C)(N)CC7)cn6)c5)C4)C3)nc2)C(C)(C)C)cc1
< 100 nM
CC1(N)CCN(c2cnc(Sc3cccc(NC(=O)CCCCCCN4CC5(CCN(c6ccc(C(=O)NCc7ccc8c(c7)CN(C7CCC(=O)NC7=O)C8=O)cn6)C5)C4)c3)cn2)CC1 (centres unmarked)
< 100 nM
CC1(N)CCN(c2cnc(Sc3cccc(NC(=O)CCCCCCCN4CC5(CC(n6cc(C#Cc7ccc8c(c7)CN(C7CCC(=O)NC7=O)C8=O)cn6)C5)C4)c3)cn2)CC1 (centres unmarked)
< 100 nM
CN[C@H](C)C(=O)N[C@@H](C(=O)N1C[C@@H](NC(=O)c2cnc(N3CCC4(CN(CCCCC(=O)Nc5cccc(Sc6cnc(N7CCC(N)(CF)CC7)cn6)c5)C4)C3)nc2)C[C@@H]1C(=O)Nc1c(F)cccc1F)C(C)(C)C
> 1000 nM

Would you kindly share the measured DC50 for CCC1(N)CCN(c2cnc(Sc3cccc(NC(=O)CCCCCCN4CC5(CCN(c6ccc(C(=O)N(C)Cc7ccc8c(c7)CN(C7CCC(=O)NC7=O)C8=O)nn6)C5)C4)c3)cn2)CC1 (centres unmarked) ?
< 100 nM

====

EXPERIMENTAL SYSTEM: SHP2 protein (Homo sapiens)
Sequence (Q06124 1-593): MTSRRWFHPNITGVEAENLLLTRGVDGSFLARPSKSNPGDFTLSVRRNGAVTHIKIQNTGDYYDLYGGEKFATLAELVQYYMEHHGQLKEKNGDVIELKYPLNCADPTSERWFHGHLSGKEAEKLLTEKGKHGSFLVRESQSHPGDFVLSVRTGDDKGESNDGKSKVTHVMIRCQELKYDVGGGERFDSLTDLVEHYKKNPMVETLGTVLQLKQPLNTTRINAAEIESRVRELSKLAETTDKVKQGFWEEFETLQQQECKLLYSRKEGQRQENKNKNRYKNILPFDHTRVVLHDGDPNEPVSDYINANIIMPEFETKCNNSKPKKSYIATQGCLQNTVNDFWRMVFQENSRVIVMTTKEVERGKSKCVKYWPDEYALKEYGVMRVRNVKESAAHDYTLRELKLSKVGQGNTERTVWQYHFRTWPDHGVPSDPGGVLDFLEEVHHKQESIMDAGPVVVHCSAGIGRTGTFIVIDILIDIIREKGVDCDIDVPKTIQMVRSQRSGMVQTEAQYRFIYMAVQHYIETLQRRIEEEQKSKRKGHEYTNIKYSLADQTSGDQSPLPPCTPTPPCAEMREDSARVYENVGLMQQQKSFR
ASSAY NAME: Degradation activity on SHP2 protein in MIA Paca-2 cells (Western blot, DC50)
Assay type: cell-based
Design: endogenous in cells; host or cells: MIA Paca-2 cells
CONDITION PARAMETERS: read-out: Degradation activity for differenct cell lines MIA Paca-2 (DC50)
EXPERIMENTAL READOUT: DC50

CC1(N)CCN(c2cnc(Sc3cccc(NC(=O)CCCCCCCCN4CCN(c5ccc(C(=O)NCc6ccc7c(c6)CN(C6CCC(=O)NC6=O)C7=O)nc5Cl)CC4C(F)(F)F)c3)cn2)CC1 (stereo not drawn)
< 0.1 µM
C[C@@H]1OCC2(CCN(c3cnc(Sc4cccc(NC(=O)C5CC(N6CCN(c7ccc(C(=O)NCc8ccc9c(c8)CN(C8CCC(=O)NC8=O)C9=O)nn7)CC6)C5)c4)cn3)CC2)[C@@H]1N (stereo partly drawn)
> 1 µM

Consider the molecule shown here: C[C@@H]1OCC2(CCN(c3cnc(Sc4cccc(NC(=O)c5ccc(N6CCC(N7CC=C(C8CCC(C(=O)NCc9ccc%10c(c9)CN(C9CCC(=O)NC9=O)C%10=O)CC8)CC7)CC6)c(F)c5)c4)cn3)CC2)[C@@H]1N (stereo partly drawn) What is its recorded DC50?
0.1 to 1 µM
